Test system: P. aeruginosa (Pa, ATCC 27853)
Experiment: microbe, parasite or virus in culture
Assay type: cell-based, Pseudomonas aeruginosa
Conditions: ATCC 27853, 24 h
Where a SMILES comes first, the peptide text is derived from it. Bridges are numbered along the chain shown (N, C = ends). The star is where a group is joined. Decanoyl = CCCCCCCCCC(=O)*; Octanoyl = CCCCCCCC(=O)*
Would you kindly list Antimicrobial Activity (MIC) Gram − Pa for each of these compounds?
Your answer is read as µg/mL, so omit the unit and give the number.

The compound CCCCCCCC(=O)N[C@@H](CS)C(=O)NCC(=O)N[C@@H](CCCCN)C(=O)N[C@@H](CCCCN)C(=O)N[C@@H](Cc1c[nH]c2ccccc12)C(=O)N[C@@H](Cc1c[nH]c2ccccc12)C(=O)NCC(=O)N[C@@H](Cc1c[nH]c2ccccc12)C(=O)N[C@@H](CCCCN)C(=O)N[C@@H](CS)C(=O)N[C@@H](CCCCN)C(=O)N[C@@H](CC(C)C)C(N)=O [Peptide C8-Turg-2, C8- CGKKWWGWKC KL-NH2] (Octanoyl-CGKKWWGWKCKL-NH2) , tested on P. aeruginosa (Pa, ATCC 27853), showed Antimicrobial Activity (MIC) Gram − Pa of 16

The compound CCCCCCCCCC(=O)N[C@H]1CSSC[C@@H](C(=O)N[C@@H](CCCNC(=N)N)C(=O)N[C@@H](CC(C)C)C(N)=O)NC(=O)[C@H](CCCNC(=N)N)NC(=O)[C@H](Cc2c[nH]c3ccccc23)NC(=O)[C@H](Cc2c[nH]c3ccccc23)NC(=O)CNC(=O)[C@H](Cc2c[nH]c3ccccc23)NC(=O)[C@H](CCCNC(=N)N)NC(=O)[C@H](CCCNC(=N)N)NC(=O)CNC1=O [Peptide C10-cTurg-6, C10- (CGRRWGWWRC)RL-NH2] (Decanoyl-CGRRWGWWRCRL-NH2; disulfide 1-10) , tested on P. aeruginosa (Pa, ATCC 27853), showed Antimicrobial Activity (MIC) Gram − Pa of 16

The compound CCCCCCCC(=O)N[C@H]1CSSC[C@@H](C(=O)N[C@@H](CCCNC(=N)N)C(=O)N[C@@H](CC(C)C)C(N)=O)NC(=O)[C@H](CCCNC(=N)N)NC(=O)[C@H](Cc2c[nH]c3ccccc23)NC(=O)[C@H](Cc2c[nH]c3ccccc23)NC(=O)CNC(=O)[C@H](Cc2c[nH]c3ccccc23)NC(=O)[C@H](CCCNC(=N)N)NC(=O)[C@H](CCCNC(=N)N)NC(=O)CNC1=O [Peptide C8-cTurg-6, C8- (CGRRWGWWRC)RL-NH2] (Octanoyl-CGRRWGWWRCRL-NH2; disulfide 1-10) , tested on P. aeruginosa (Pa, ATCC 27853), showed Antimicrobial Activity (MIC) Gram − Pa of 16

The compound CCCCCCCCCC(=O)N[C@H]1CSSC[C@@H](C(=O)N[C@@H](CCCCN)C(=O)N[C@@H](CC(C)C)C(N)=O)NC(=O)[C@H](CCCCN)NC(=O)[C@H](Cc2c[nH]c3ccccc23)NC(=O)CNC(=O)CNC(=O)[C@@H]2CCCN2C(=O)[C@H](CCCCN)NC(=O)[C@H](CCCCN)NC(=O)CNC1=O [Peptide C10-cTurg-1, C10 -(CGKKPGGWKC)KL-NH2] (Decanoyl-CGKKPGGWKCKL-NH2; disulfide 1-10) , tested on P. aeruginosa (Pa, ATCC 27853), showed Antimicrobial Activity (MIC) Gram − Pa of 32

The compound CC(C)C[C@H](NC(=O)[C@H](CCCCN)NC(=O)[C@@H]1CSSC[C@H](N)C(=O)NCC(=O)N[C@@H](CCCCN)C(=O)N[C@@H](CCCCN)C(=O)N[C@@H](Cc2c[nH]c3ccccc23)C(=O)NCC(=O)N[C@@H](Cc2c[nH]c3ccccc23)C(=O)N[C@@H](Cc2c[nH]c3ccccc23)C(=O)N[C@@H](CCCCN)C(=O)N1)C(N)=O [cTurg-3] (H-CGKKWGWWKCKL-NH2; disulfide 1-10; N-terminus assumed) , tested on P. aeruginosa (Pa, ATCC 27853), showed Antimicrobial Activity (MIC) Gram − Pa of 128
